Would you kindly list growth for each of these molecules?
System: SW-620 colon
Test Name: NCI-60 one-dose screen, 48 h (100 = growth as untreated, 0 = no growth, -100 = all killed)
Condition Set: 10 µM unless noted
This is part of a sample that, as a whole, favours compounds with a hit. Of some 83,000 tested, about 20% had one in any assay.
Answers are plain numbers, in %.

Completed entries (count: 4):
So for O=c1c2c3c(sc2n2c(-c4cc(-c5ccccc5)nn4-c4ccccc4)nnc2n1Cc1ccccc1)CCCC3 , the logged growth turned out to be 83.2

Entry O=C(Nc1ccc(Nc2ccncc2)cc1)c1ccc(C(=O)Nc2ccc(Nc3ccncc3)cc2)cc1 , growth reported as 42.2

What the record says about Cc1cc(=O)[nH]c(N=Nc2c(O)[nH]c3ccccc23)n1 : growth is 110

growth reading for COc1ccc(-c2csc(C3=C(O)CN(CCCN4CCCC4=O)C3=N)n2)cc1OC : 103

--- query ---
Lab book: growth of Cc1c(Cl)cc(-n2c(=O)c3ccccc3c3ccccc3c2=O)cc1Cl noted as 109

----------
Please go through the items and note down their growth.
Test system: KM12 colon
Test Name: NCI-60 one-dose screen, 48 h (100 = growth as untreated, 0 = no growth, -100 = all killed)
Condition Set: 10 µM unless noted
The panel holds about 83,000 compounds, 20% with a hit somewhere; the sample as a whole holds those more often.
Give bare numbers, in %.

COC(=O)[C@]12CC[C@@H](C)[C@H](C)[C@@H]1C1=CC[C@@H]3[C@@]4(C)C(C=O)=C[C@@](C)(COS(C)(=O)=O)[C@@H]4C(=O)C[C@@]3(C)[C@]1(C)CC2 yielded growth of 23.1

The recorded growth for entry O=C1/C(=C\c2c[nH]c3ccccc23)c2ccccc2N1c1c(Cl)cccc1Cl equals -82.3

Kindly note the recorded growth for Cc1cc(NCc2cc(Nc3ccnc4cc(Cl)ccc34)ccc2F)nc(Cl)n1 , which is 64.7

Data point: COc1ccc(-c2nc(SC(C)C)nc(NNC(N)=S)c2C#N)cc1 ; growth = 39.2

Quick note, growth for COc1cccc(-c2nc3sccn3c2-c2ccnc(NCCNS(=O)(=O)c3cccc(Cl)c3)c2)c1 landed at 42.8

Parameter requested: growth. Apply to each item below.
1. NC(=N\N=C/c1ccccc1[N+](=O)[O-])/C(N)=N\N=C/c1ccccc1[N+](=O)[O-]
2. C=CCNc1nc(NN2C(=O)c3cccc4cccc(c34)C2=O)nc(-n2cnc3ccccc32)n1

[104, 18.6]

----------
Test system: U251 CNS
Test Name: NCI-60 one-dose screen, 48 h (100 = growth as untreated, 0 = no growth, -100 = all killed)
Condition Set: 10 µM unless noted
The panel holds about 83,000 compounds, 20% with a hit somewhere; the sample as a whole holds those more often. Active and inactive are the calls of the source. The calls were made as follows: active = growth percent below 10; inactive = the rest.
Test Readout: growth

As a guide, the following entries are already answered.
N#Cc1c(-c2ccccn2)[nH]c(=S)[nH]c1=O yielded growth of 99.8% (inactive)

Entry under test: O=C(NCCCNc1cc(-c2cn(-c3ccccc3)nc2-c2cccc(O)c2)ccn1)c1ccc(F)cc1 . Its growth was 15.6% (inactive)

Value of growth reported for the molecule C[C@@]1(CCC#N)[C@H]2CC[C@@H]3[C@H]4[C@H](C(=O)/C=C/c5cccnc5)CC[C@]4(C#N)CC[C@@]3(C)[C@]2(C)CC[C@H]1C(=O)/C=C/c1cccnc1 is 64.1% (inactive)

Entry O=C(Cc1ccc(F)c(F)c1)Nc1cc(C2(C(F)(F)F)CC2)nn1Cc1ccccc1 — recorded growth = 4.6% (active)

Could you now consider this next molecule?
Data point: Cc1ccccc1NC(=O)N/C(N)=N/c1nc(C)c(C)s1 ; growth = 21.3% (inactive)

----------
Test system: NCI-H522 lung
Test Name: NCI-60 one-dose screen, 48 h
Condition Set: 10 µM unless noted
The panel holds about 83,000 compounds, 20% with a hit somewhere; the sample as a whole holds those more often. Activity calls are given as the source filed them. How the source made its calls: active means growth percent below 10; inactive means the rest.
The categories you may choose from are t (active), f (inactive)

Solved cases below.
Short answer needed: outcome of this test for COC(=O)[C@]12CC[C@@H](C)[C@H](C)[C@@H]1C1=CC[C@@H]3[C@@]4(C)C(C=O)=C[C@@](C)(COC(=O)c5ccco5)[C@@H]4C(=O)C[C@@]3(C)[C@]1(C)CC2 ?
f

Query: recorded result category for O=C(O)c1ccc2c(c1Cl)C(=O)c1ccccc1C2=O in this test
f

Which outcome was assigned to Cc1c(C)c2c(c(C)c1OCC(=O)O)CC[C@@](C)(CCC[C@@H](C)CCC[C@@H](C)CCCC(C)C)O2 in this test?
t

Name the outcome recorded for Clc1ccc(-c2c3ccc(=[N+]4CCCCC4)cc-3oc3cc(N4CCCCC4)ccc23)cc1 in the assay.
t

What was the test verdict on C=C1C(=O)O[C@H]2[C@H]1CC/C(COC(=O)C(=O)c1c[nH]c3ccc(OC)cc13)=C\CC[C@@]1(C)O[C@@H]21 ?
t

# outcome recorded in this test, key = COc1ccc(C2CC(c3cccc(OC)c3)=NN2C(=O)c2cc(OC)c(OC)c(OC)c2)cc1 (stereo not drawn)
t

Given CC1CC2Oc3ccc(Cl)cc3C(=O)N2O1 (stereo not drawn) , state the outcome it received in this test.
f

***
Per the records of this test, what outcome belongs to CC/C=C\C[C@H](O)C/C=C1/C(=O)C=C[C@@H]1C/C=C\CCCCO ?
t

----------
System: TK-10 renal
Test Name: NCI-60 one-dose screen, 48 h
Condition Set: 10 µM unless noted
About 83,000 compounds went through this panel and 20% of them were active in at least one assay; those are over-represented in the sample as a whole. The source made the active and inactive calls. Rule for the calls: active = growth percent below 10; inactive = the rest.
Classes to choose from: TRUE (active), FALSE (inactive)

What outcome does the record of this test show for COc1cc(/C=N/NC(=O)Cn2c(C(C)C)nc3ccccc32)ccc1O ?
FALSE

Outcome logged for COc1cccc(-c2nc3sccn3c2-c2ccnc(NCCNS(=O)(=O)c3cccc(Cl)c3)c2)c1 in this assay:
FALSE

Field: outcome | Entry: CC(C)=C[C@@H]1c2c(c3ccccc3n(C)c2=O)O[C@H]2c3c(c4ccccc4n(C)c3=O)OC(C)(C)[C@@H]12
FALSE

Which outcome did this test record for the molecule COc1ccc(NC(=O)CSc2nc(C)c(C(C)=O)n2-c2ccc([N+](=O)[O-])cc2)cc1 ?
FALSE

Hi, sorry to bother you, what did the test record for Clc1cccc(Cl)c1/C=C/c1cc(/C=C/c2c(Cl)cccc2Cl)[nH]n1 ?
FALSE

Could you check what this test reported for Cn1ccc2c(c1=O)C(=O)c1nccc3c1c-2nc1ccccc13 ?
TRUE

What was the test verdict on COc1cccc(-c2nn(-c3ccccc3)cc2-c2ccnc(NCCNC(=O)Nc3ccc(Cl)c(Cl)c3)c2)c1 ?
FALSE

Can you look up the reported call for NC(=N\N=C/c1cccc([N+](=O)[O-])c1)/C(N)=N\N=C/c1cccc([N+](=O)[O-])c1 for me?
FALSE

Continuing:
Which outcome was entered for the molecule Cn1c(=O)c2[nH]c(NN)nc2n(C)c1=O in this test?
FALSE

Hello, I am checking results. What call was entered for N#Cc1c(N)nn(C(=O)c2ccc(NC(=O)c3ccccn3)cc2)c1-c1ccc(Cl)cc1 ?
FALSE

How did this test come out for C[n+]1cc2cc(C(N)=O)[nH]c3c(=N)c(Cl)c(N)c1c23 ?
FALSE

Query: recorded result category for CCN(CC)c1ccc2nc3c4ccccc4c(=NC(=O)c4ccccc4-c4c5ccc(N(CC)CC)cc5[o+]c5cc(N(CC)CC)ccc45)cc-3oc2c1 in this test
FALSE

Hi, sorry to bother you, what did the test record for CNc1ccc(NC)c2c1C(=O)c1ccccc1C2=O ?
FALSE

What did this assay record as the result for C[C@H](NC(=O)[C@@H]1CSSC[C@@H](NC(=O)c2nc3ccccc3cc2O)C(=O)NCC(=O)N1C)c1ccccc1 ?
FALSE

Hey, what did the test say about c1ccc(Nc2nc(-c3ccccn3)cs2)nc1 ?
FALSE

Field: outcome | Entry: Cn1c(I)c(C#C[Si](C)(C)C)c(=O)n(C(=O)c2ccccc2)c1=O
FALSE

Per the assay record, what outcome was assigned to N#Cc1nc(C#N)c(Sc2ccccc2)c(Sc2ccccc2)c1Sc1ccccc1 ?
TRUE

Identify the outcome logged in this assay for the molecule shown: Cc1cc(C)c2c(-c3nnc(N)s3)cc(=O)oc2c1
FALSE

Dear colleague, could you share the recorded outcome for COc1nc(N(C)O)nc(N(C)O)n1 when you have a moment?
FALSE

Recorded call for COCCc1ccc(OCC(O)CNC(C)C)cc1 (centres undefined) ?
FALSE

Hi, do you know how N#Cc1c(N2CCNCC2)nc2sc3cc(Cl)c(Cl)cc3n2c1=N came out in this test?
FALSE

I would be grateful if you could indicate the recorded call for Cc1ccc(-c2cc3c(cc2O)C2CCCCC2(N2CCOCC2)O3)cc1 (centres undefined) .
FALSE
